细胞结合百分率 (percent of cells bound) values for the binders below.
EXPERIMENTAL SYSTEM: T1, BCMA on the surface of BCMA-positive cell lines H929 (NCI-H929) and RPMI8226 (human, UniProt Q02223 1-184)
T1 construct: whole, on cells; Endogenous BCMA of the cell lines; also called 细胞膜表面的BCMA抗原
T1 sequence (looked up): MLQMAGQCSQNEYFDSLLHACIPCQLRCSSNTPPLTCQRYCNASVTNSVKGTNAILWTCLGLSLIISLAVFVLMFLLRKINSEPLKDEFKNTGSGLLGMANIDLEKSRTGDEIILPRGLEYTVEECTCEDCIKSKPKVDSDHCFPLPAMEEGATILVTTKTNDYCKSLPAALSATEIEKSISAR
TEST DETAILS: flow cytometry on H929 cells

{"BINDER": "B10 parental antibody as expressed and purified in Example 3 (antibody, V domains shown, also called 亲本B10; B10亲本抗体) VH: QVQLQQSGAEVKKPGSSVKVSCKASGGTFSSYAISWVRQAPGQGLEWMGGIIPIFGTANYAQKFQGRVTITADESTSTAYMELSSLRSEDTAVYYCARGWYFDLWGRGTLVTVSS VL: LPVLTQPPSASGTPGQRVTISCSGSSSNIGGYSVNWYQQFPGTAPKLLIYRNNQRPSGVPDRFSGSKSGASASLAISGLQSEDEADYYCAAWDDSLIGYVFGTGTQLTVL", "细胞结合百分率 (percent of cells bound), %": 75.3}
{"BINDER": "B10.3 (affinity-matured mutant of B10) (scFv, also called 突变体B10.3) scFv: QVQLQQSGAEVKKPGSSVKVSCKASGGTFSKSAIQWVRQAPGQGLEWMGGVIPIFGTANYAQKFQGRVTITADESTSTAYMELSSLRSEDTAVYYCARGWYLDLWGRGTLVTVSSGGSSRSSSSGGGGSGGGGLPVLTQPPSASGTPGQRVTISCSGSSNNIGGYSVNWYQQFPGTAPKLLIYRNNQRPSGVPDRFSGSKSGASASLAISGLQSEDEADYYCAAWDDSVIGWLFGTGTQLTVL", "细胞结合百分率 (percent of cells bound), %": 98}
{"BINDER": "B10.4 (affinity-matured mutant of B10) (scFv, also called 突变体B10.4) scFv: QVQLQQSGAEVKKPGSSVKVSCKASGGTFSKSAIMWVRQAPGQGLEWMGGVIPIFGTANYAQKFQGRVTITADESTSTAYMELSSLRSEDTAVYYCARGWYLDLWGRGTLVTVSSGGSSRSSSSGGGGSGGGGLPVLTQPPSASGTPGQRVTISCSGSSNNIGGYSVNWYQQFPGTAPKLLIYRNNQRPSGVPDRFSGSKSGASASLAISGLQSEDEADYYCAAWDDSVIGWLFGTGTQLTVL", "细胞结合百分率 (percent of cells bound), %": 97.9}
{"BINDER": "B10.5 (affinity-matured mutant of B10) (scFv, also called 突变体B10.5) scFv: QVQLQQSGAEVKKPGSSVKVSCKASGGTFSKSAIHWVRQAPGQGLEWMGGVIPIFGTANYAQKFQGRVTITADESTSTAYMELSSLRSEDTAVYYCARGWYLDLWGRGTLVTVSSGGSSRSSSSGGGGSGGGGLPVLTQPPSASGTPGQRVTISCSGSSSNIGGYSVNWYQQFPGTAPKLLIYRNNQRPSGVPDRFSGSKSGASASLAISGLQSEDVADYYCAAWDDSLIGYVFGTGTQLTVL", "细胞结合百分率 (percent of cells bound), %": 97.2}
{"BINDER": "B10.9 (affinity-matured mutant of B10) (scFv, also called 突变体B10.9) scFv: QVQLQQSGAEVKKPGSSVKVSCKASGGTFSKSAIQWVRQAPGQGLEWMGGVIPIFGTANYAQKFQGRVTITADESTSTAYMELSSLRSEDTAVYYCARGWYLDLWGRGTLVTVSSGGSSRSSSSGGGGSGGGGLPVLTQPPSASGTPGQRVTISCSGSSNNIGGYSVNWYQQFPGTAPKLLIYRNNQRPSGVPDRFSGSKSGASASLAISGLQSEDEADYYCAAWDDSEIGWLFGTGTQLTVL", "细胞结合百分率 (percent of cells bound), %": 91.6}

Where do the numbers come from? From patent CN113061185A.
